Source of measurements: ChEMBL document CHEMBL1123593

Target: Adrenergic receptor alpha-1 (Homo sapiens) (UniProt P35348+P25100+P35368)
Assay: Antagonist activity against post junctional alpha-1 adrenergic receptor was measured by Kerbs super fused rabbit pulmonary artery preparations labeled with [3H]- norepinephrine.
Assay type: functional
Details: Oryctolagus cuniculus; target entry is the homologue from another species
Exercise: for every item that follows, state its recorded EC40.
The answer consists of two parts: a number and, after it, its unit.

Consider the worked cases shown below.
>  <Molecule>
COc1cc2nc(N3CCN(C(=O)C4COc5ccccc5O4)CC3)nc(N)c2cc1OC (single isomer, unassigned; (+))

>  <Assay system>
Adrenergic receptor alpha-1 (Homo sapiens) (UniProt P35348+P25100+P35368)

>  <Test result>
7 nM

$$$$
>  <Molecule>
COc1cc2nc(N3CCN(C(=O)C4Oc5ccccc5OC4C)CC3)nc(N)c2cc1OC (trans isomer)

>  <Assay system>
Adrenergic receptor alpha-1 (Homo sapiens) (UniProt P35348+P25100+P35368)

>  <Test result>
13 nM

$$$$
>  <Molecule>
COc1cc2nc(N3CCN(C(=O)C4Oc5ccccc5OC4C)CC3)nc(N)c2cc1OC (cis isomer)

>  <Assay system>
Adrenergic receptor alpha-1 (Homo sapiens) (UniProt P35348+P25100+P35368)

>  <Test result>
27 nM

$$$$
>  <Molecule>
COc1cc2nc(N3CCN(C(=O)C4COc5ccccc5O4)CC3)nc(N)c2cc1OC (single isomer, unassigned; (-))

>  <Assay system>
Adrenergic receptor alpha-1 (Homo sapiens) (UniProt P35348+P25100+P35368)

>  <Test result>
40 nM

$$$$

For every listed record, write down its EC40.
1. COc1cc2nc(N3CCN(C(=O)c4ccco4)CC3)nc(N)c2cc1OC [PRAZOSIN]
2. COc1cc2nc(N3CCN(C(=O)C4COc5ccccc5O4)CC3)nc(N)c2cc1OC (stereo in doubt; 1)
3. COc1cc2nc(N3CCN(C(=O)C4COc5cccc(C)c5O4)CC3)nc(N)c2cc1OC (configuration not stated)

4.5 nM
50 nM
26 nM
